# Test system: BALB/C mice
# method: In vivo expression, whole-body luminescence (IVIS)
# applied conditions: cirRNA (SEQ ID NO: 1) LNPs, BALB/C mice
quantity: In vivo Expression (Whole Body)
Numbers only.

Some entries whose results are on file:
CCCCCCCCCCCOC(=O)CCCCCN(CCCCCCCC(=O)OC(CCCCCCCC)CCCCCCCC)CCOC(=O)NCCCN(C)C    1.01E+06
CCCCC/C=C\C/C=C\CCCCCCCCN(CCCCCCCC(=O)OC(CCCCCCCC)CCCCCCCC)CCCOC(=O)NCCCn1ccnc1    1.88E+08
CCCCCCCCCC(=O)OCCCCCCCCN(CCCCCCCCOC(=O)CCCCCCCCC)CCOC(=O)NCc1ncc[nH]1    6.84E+06

Dear reader, for each entry below, please note its In vivo Expression (Whole Body).
1. CCCCC/C=C\C/C=C\CCCCCCCCN(CCCCCCCC/C=C\C/C=C\CCCCC)CCOC(=O)NCCN(C)C
2. CCCCC/C=C\C/C=C\CCCCCCCCN(CCCCCCCC/C=C\CCCCCCCC)CCOC(=O)NCCN(C)C
3. CCCCC/C=C\C/C=C\CCCCCCCCN(CCCCCCCC/C=C\C/C=C\CCCCC)CCOC(=O)NCCN1CCCCC1
4. CCCCCCCCC(CCCCCC)C(=O)OCCCCCCCCN(CCCCCCCCOC(=O)C(CCCCCC)CCCCCCCC)CCCOC(=O)NCc1ncc[nH]1 (centres unmarked)
5. CCCCCCCCCC(=O)OCCCCCCCN(CCCCCCCCOC(=O)C(CCCCCC)CCCCCCCC)CCOC(=O)NCCCN(C)C (centres unmarked)
6. CCCCCCCCCC(=O)OCCCCCCCN(CCCCCCCOC(=O)CCCCCCCCC)CCOC(=O)NCCN1CCN(C)CC1
7. CCCCCCCCCCC(CCCCCCCC)COC(=O)CCCCCN(CCCCCC(=O)OCC(CCCCCCCC)CCCCCCCCCC)CCOC(=O)NCCN1CCN(C)CC1 (centres unmarked)

Ans:
["4.69E+04", "6.00E+07", "1.96E+07", "3.46E+08", "1.00E+06", "1.31E+06", "3.45E+07"]

Items follow; give In vivo Expression (Whole Body) for each.
1. CCCCCCCCCC(=O)OCCCCCCCN(CCCCCCCCOC(=O)C(CCCCCC)CCCCCCCC)CCOC(=O)NCCN1CCCCC1 (centres unmarked)
2. CCCCCCCCCC(=O)OCCCCCCCN(CCCCCCCCOC(=O)C(CCCCCC)CCCCCCCC)CCOC(=O)NCCN1CCCC1 (centres unmarked)
3. CCCCCCCCC(CCCCCCCC)OC(=O)CCCCCCCN(CCCCCCCCOC(=O)C(CCCCCC)CCCCCCCC)CCOC(=O)NCCCN(C)C (centres unmarked)
4. CCCCCCCC/C=C\CCCCCCCCN(CCCCCCCCOC(=O)C(CCCCCC)CCCCCCCC)CCOC(=O)NCCN1CCN(C)CC1 (centres unmarked)

Ans:
1: 1.86E+07; 2: 3.91E+07; 3: 4.74E+06; 4: 1.18E+06

---

# Test system: Alanine Aminotransferase (ALT)
# method: Liver enzyme elevation in serum, ALT
# Assay type: in vivo
# applied conditions: cirRNA (SEQ ID NO: 1) LNPs; BALB/C mice; intravenous 0.5 MPK; 24 hours
Exercise: state measured ALT in Sera (IU/L) 24 hours After 0.5 MPK Injection for each of the compounds provided.
Give bare numbers, in IU/L.

Field: ALT in Sera (IU/L) 24 hours After 0.5 MPK Injection. Fill in for each record below.
1. CCCCCCCCCCC(CCCCCCCC)COC(=O)CCCCCN(CCCCCC(=O)OCC(CCCCCCCC)CCCCCCCCCC)CCCOC(=O)NCCN1CCCCC1 (centres unmarked)
2. CCCCCCCCC(CCCCCC)C(=O)OCCCCCCCCN(CCCCCCCCOC(=O)C(CCCCCC)CCCCCCCC)CCCOC(=O)NCCN1CCCCCC1 (centres unmarked)
3. CCCCCCCCC(CCCCCC)C(=O)OCCCCCCCCN(CCCCCCCCOC(=O)C(CCCCCC)CCCCCCCC)CCOC(=O)NCCN(C)C (centres unmarked)
4. CCCCC/C=C\C/C=C\CCCCCCCCN(CCCCCCCC(=O)OC(CCCCCCCC)CCCCCCCC)CCCOC(=O)NCCN(C)C
5. CCCCCCCCCCC(CCCCCCCC)COC(=O)CCCCCN(CCCCCC(=O)OCC(CCCCCCCC)CCCCCCCCCC)CCOC(=O)NCCN1CCCC1 (centres unmarked)

Ans:
1: 123.00; 2: 116.00; 3: 181.67; 4: 79.00; 5: 57.60

Hi! Can you tell me ALT in Sera (IU/L) 24 hours After 0.5 MPK Injection for each of these compounds?
1. CCCCCCCCC(CCCCCCCC)OC(=O)CCCCCCCN(CCCCCCCCOC(=O)C(CCCCCC)CCCCCCCC)CCCOC(=O)NCCN1CCCCCC1 (centres unmarked)
2. CCCCCCCCC(CCCCCC)C(=O)OCCCCCCCCN(CCCCCCCCCCC(=O)OCCCCCC)CCOC(=O)NCCN(C)C (centres unmarked)
3. CCCCCCCCCCC(CCCCCCCC)COC(=O)CCCCCN(CCCCCC(=O)OCC(CCCCCCCC)CCCCCCCCCC)CCOC(=O)NCCN(C)C (centres unmarked)
4. CCCCCCCCCCC(CCCCCCCC)COC(=O)CCCCCN(CCCCCC(=O)OCC(CCCCCCCC)CCCCCCCCCC)CCOC(=O)NCCN1CCCCC1 (centres unmarked)
5. CCCCC/C=C\C/C=C\CCCCCCCCN(CCCCCC(=O)OCCCCCCCCCCC)CCOC(=O)NCc1ncc[nH]1
6. CCCCCCCCCC(=O)OCCCCCCCN(CCCCCCCCOC(=O)C(CCCCCC)CCCCCCCC)CCOC(=O)NCCN1CCCCC1 (centres unmarked)

Ans:
192.50
41.53
66.47
57.80
37.87
93.00
